tested target: human H4 receptor (Homo sapiens (Human))
Sequence (Q9H3N8 whole entry): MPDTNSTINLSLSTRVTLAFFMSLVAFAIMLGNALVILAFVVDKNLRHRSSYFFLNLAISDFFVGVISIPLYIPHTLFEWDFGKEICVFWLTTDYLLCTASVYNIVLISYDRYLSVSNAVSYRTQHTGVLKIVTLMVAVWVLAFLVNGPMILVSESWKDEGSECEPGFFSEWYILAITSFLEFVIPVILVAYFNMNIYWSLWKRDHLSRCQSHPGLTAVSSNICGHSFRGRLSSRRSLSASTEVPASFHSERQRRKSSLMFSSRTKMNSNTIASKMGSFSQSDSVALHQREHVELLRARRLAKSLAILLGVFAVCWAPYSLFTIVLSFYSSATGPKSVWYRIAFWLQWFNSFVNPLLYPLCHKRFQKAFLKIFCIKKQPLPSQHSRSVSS
test name: Binding assay on recombinant human histamine H4 receptor ([3H]histamine competition, SK-N-MC cell membranes)
settings: membranes harvested with cell harvester; [3H]histamine 10 nM; average of results; read-out: Cell Harvester Ki
measurement type: pKi
Give bare numbers, as −log10 of the molar value.

Please give pKi, item by item, for the list that follows.
1. OCCCNc1cc(N2C[C@H]3CCN[C@H]3C2)cnn1
2. CCCCNc1nccc(N2CCN(C)CC2)n1

Result:
1: 5.98; 2: 7.48

Task: What pKi value was documented for this molecule, `c1cc(N2C[C@H]3CCN[C@H]3C2)cc(NC2CCOCC2)n1` ?
Result: 7.01
